# reported MIC; entries follow
Tested on: Pseudomonas aeruginosa
procedureSummary: Antibacterial activity against Pseudomonas aeruginosa
Format: functional
Give just the number in µg/mL; leave the unit off.

CC1/C(=N/N=C/c2ccccc2Cl)CC(c2ccco2)NC1c1ccco1 (centres undefined) : 25
CC1/C(=N/N=C/c2ccccc2O)CC(c2ccccc2)NC1c1ccccc1 (centres undefined) : 50
CC1/C(=N/N=C/c2ccccc2[N+](=O)[O-])CC(c2ccccc2)NC1c1ccccc1 (centres undefined) : 50

Moving on to the next compound.
Which value of MIC has been reported for `CN[C@@H]1[C@H](O[C@H]2[C@H](O[C@H]3[C@H](O)[C@@H](O)[C@H](N=C(N)N)[C@@H](O)[C@@H]3N=C(N)N)O[C@@H](C)[C@]2(O)C=O)O[C@@H](CO)[C@H](O)[C@H]1O` in the records?
25

* * *

System: Aspergillus flavus
procedureSummary: Antifungal activity against Aspergillus flavus
Format: functional
MIC listing for selected compounds.
Give your result in µg/mL as a bare value.

Examples with answers:
CC1/C(=N/N=C/c2ccccc2[N+](=O)[O-])CC(c2ccccc2)NC1c1ccccc1 (stereo not drawn) : 100
CC1/C(=N/N=C/c2ccccc2O)CC(c2ccccc2)NC1c1ccccc1 (stereo not drawn) : 100

Now take the following compound into account.
Tell me the measured MIC of CC1/C(=N/N)CC(c2ccccc2)NC1c1ccccc1 (stereo not drawn) , please.
100

* * *

Tested on: Candida
procedureSummary: Antifungal activity against Candida-51
Type: functional
The entries below come with measured MIC values attached.
# number only, unit µg/mL dropped from output

CC1/C(=N/N=C/c2ccccc2Cl)CC(c2ccco2)NC1c1ccco1 (stereo not drawn) : 12.5
C[C@@H]1[C@H](O)[C@@H](C)/C=C/C=C/C=C/C=C/C=C/C=C/C=C/[C@H](O[C@@H]2O[C@H](C)[C@@H](O)[C@H](N)[C@@H]2O)C[C@@H]2O[C@](O)(C[C@@H](O)C[C@@H](O)[C@H](O)CC[C@@H](O)C[C@@H](O)CC(=O)O[C@H]1C)C[C@H](O)[C@H]2C(=O)O : 25
CC1/C(=N/N=C/c2ccccc2O)CC(c2ccccc2)NC1c1ccccc1 (stereo not drawn) : 25

Query (compound): CC1/C(=N/N=C/c2ccccc2[N+](=O)[O-])CC(c2ccccc2)NC1c1ccccc1 (stereo not drawn) ; field requested: MIC
50

Same question for CC1/C(=N/N=C2\CC(c3ccccc3)NC(c3ccccc3)C2C)CC(c2ccccc2)NC1c1ccccc1 (mixture of isomers) please.
100

// next record CC1/C(=N/N=C/c2ccco2)CC(c2ccccc2)NC1c1ccccc1 (stereo not drawn)
12.5

Now the same for COc1ccc(/C=N/N=C2\CC(c3ccccc3)NC(c3ccccc3)C2C)cc1 (mixture of isomers)
12.5

Consider next the compound C/C(=N\N=C1/CC(c2ccccc2)NC(c2ccccc2)C1C)c1ccccc1 (mixture of isomers) in the same way.
50

* * *

System: Aspergillus flavus
procedureSummary: Antifungal activity against Aspergillus flavus
Assay type: functional
measurementName: MIC (µg/mL)
Only the number, expressed in µg/mL, is required.

CC1/C(=N/N=C/c2ccccc2Cl)CC(c2ccco2)NC1c1ccco1 (configuration not stated) : 50
COc1ccc(/C=N/N=C2\CC(c3ccccc3)NC(c3ccccc3)C2C)cc1 (mixture of isomers) : 100
C/C(=N\N=C1/CC(c2ccccc2)NC(c2ccccc2)C1C)c1ccccc1 (mixture of isomers) : 100
C[C@@H]1[C@H](O)[C@@H](C)/C=C/C=C/C=C/C=C/C=C/C=C/C=C/[C@H](O[C@@H]2O[C@H](C)[C@@H](O)[C@H](N)[C@@H]2O)C[C@@H]2O[C@](O)(C[C@@H](O)C[C@@H](O)[C@H](O)CC[C@@H](O)C[C@@H](O)CC(=O)O[C@H]1C)C[C@H](O)[C@H]2C(=O)O : 50

Which value of MIC has been reported for CC1/C(=N/N=C2\CC(c3ccccc3)NC(c3ccccc3)C2C)CC(c2ccccc2)NC1c1ccccc1 (mixture of isomers) in the records?
100

Please answer likewise for CC1/C(=N/N)CC(c2ccco2)NC1c1ccco1 (configuration not stated)
100

Now consider CC1/C(=N/N=C/c2ccco2)CC(c2ccccc2)NC1c1ccccc1 (configuration not stated) and answer again.
50

* * *

Test system: Staphylococcus aureus
procedureSummary: Antibacterial activity against Staphylococcus aureus
Format: functional
measurementName: MIC (µg/mL)
A number alone suffices; assume µg/mL.

Example results:
CN[C@@H]1[C@H](O[C@H]2[C@H](O[C@H]3[C@H](O)[C@@H](O)[C@H](N=C(N)N)[C@@H](O)[C@@H]3N=C(N)N)O[C@@H](C)[C@]2(O)C=O)O[C@@H](CO)[C@H](O)[C@H]1O : 25
CC1/C(=N/N)CC(c2ccccc2)NC1c1ccccc1 (stereo not given) : 100
C/C(=N\N=C1/CC(c2ccccc2)NC(c2ccccc2)C1C)c1ccccc1 (mixture of isomers) : 50
CC1/C(=N/N)CC(c2ccco2)NC1c1ccco1 (stereo not given) : 100
CC1/C(=N/N=C/c2ccccc2Cl)CC(c2ccco2)NC1c1ccco1 (stereo not given) : 25

Find the recorded MIC belonging to CC1/C(=N/N=C/c2ccccc2O)CC(c2ccccc2)NC1c1ccccc1 (stereo not given) and report it.
50

* * *

Listed here are compounds together with their documented MIC.
System: Enterococcus faecalis
procedureSummary: Antibacterial activity against Enterococcus faecalis
Assay type: functional
Note to self: number, then unit, no commentary.

Examples with their reported MIC follow.
COc1ccc(/C=N/N=C2\CC(c3ccccc3)NC(c3ccccc3)C2C)cc1 (mixture of isomers) : 25 µg/mL
CN[C@@H]1[C@H](O[C@H]2[C@H](O[C@H]3[C@H](O)[C@@H](O)[C@H](N=C(N)N)[C@@H](O)[C@@H]3N=C(N)N)O[C@@H](C)[C@]2(O)C=O)O[C@@H](CO)[C@H](O)[C@H]1O [STREPTOMYCIN] : 50 µg/mL
CC1/C(=N/N=C/c2ccco2)CC(c2ccccc2)NC1c1ccccc1 (centres undefined) : 50 µg/mL

Consider the compound shown here: CC1/C(=N/N=C/c2ccccc2Cl)CC(c2ccco2)NC1c1ccco1 (centres undefined) What is its recorded MIC?
25 µg/mL

* * *

System: Candida
procedureSummary: Antifungal activity against Candida-6
Type: functional
Catalogue of MIC readings, one per entry.
Report the figure in µg/mL without appending any unit label.

CC1/C(=N/N=C/c2ccccc2O)CC(c2ccccc2)NC1c1ccccc1 (stereo not given) : 50
COc1ccc(/C=N/N=C2\CC(c3ccccc3)NC(c3ccccc3)C2C)cc1 (mixture of isomers) : 12.5
C[C@@H]1[C@H](O)[C@@H](C)/C=C/C=C/C=C/C=C/C=C/C=C/C=C/[C@H](O[C@@H]2O[C@H](C)[C@@H](O)[C@H](N)[C@@H]2O)C[C@@H]2O[C@](O)(C[C@@H](O)C[C@@H](O)[C@H](O)CC[C@@H](O)C[C@@H](O)CC(=O)O[C@H]1C)C[C@H](O)[C@H]2C(=O)O : 25
CC1/C(=N/N=C/c2ccco2)CC(c2ccccc2)NC1c1ccccc1 (stereo not given) : 12.5
CC1/C(=N/N)CC(c2ccccc2)NC1c1ccccc1 (stereo not given) : 100
CC1/C(=N/N=C/c2ccccc2Cl)CC(c2ccco2)NC1c1ccco1 (stereo not given) : 12.5
C/C(=N\N=C1/CC(c2ccccc2)NC(c2ccccc2)C1C)c1ccccc1 (mixture of isomers) : 25
CC1/C(=N/N=C2\CC(c3ccccc3)NC(c3ccccc3)C2C)CC(c2ccccc2)NC1c1ccccc1 (mixture of isomers) : 50
CC1/C(=N/N=C/c2ccccc2[N+](=O)[O-])CC(c2ccccc2)NC1c1ccccc1 (stereo not given) : 100

Okay, now this compound:
Could you share which MIC value was measured for CC1/C(=N/N)CC(c2ccco2)NC1c1ccco1 (stereo not given) ?
100

* * *

System: Pseudomonas aeruginosa
procedureSummary: Antibacterial activity against Pseudomonas aeruginosa
Type: functional
measurementName: MIC (µg/mL)
Quick reminder: number only, in µg/mL, skip the unit.

See these solved cases before continuing.
COc1ccc(/C=N/N=C2\CC(c3ccccc3)NC(c3ccccc3)C2C)cc1 (mixture of isomers) : 50
CC1/C(=N/N=C/c2ccco2)CC(c2ccccc2)NC1c1ccccc1 (centres undefined) : 50
C/C(=N\N=C1/CC(c2ccccc2)NC(c2ccccc2)C1C)c1ccccc1 (mixture of isomers) : 25

Could you share which MIC value was measured for CC1/C(=N/N=C2\CC(c3ccccc3)NC(c3ccccc3)C2C)CC(c2ccccc2)NC1c1ccccc1 (mixture of isomers) ?
100

* * *

Test system: Staphylococcus aureus
procedureSummary: Antibacterial activity against Staphylococcus aureus
Assay type: functional
measurementName: MIC (µg/mL)
Unit µg/mL implied. Number only.

Here's what some known entries look like.
CC1/C(=N/N=C/c2ccccc2[N+](=O)[O-])CC(c2ccccc2)NC1c1ccccc1 (centres undefined) : 50
CC1/C(=N/N=C/c2ccco2)CC(c2ccccc2)NC1c1ccccc1 (centres undefined) : 12.5
CC1/C(=N/N=C2\CC(c3ccccc3)NC(c3ccccc3)C2C)CC(c2ccccc2)NC1c1ccccc1 (mixture of isomers) : 100

Next item in the queue.
What does the record list as MIC for COc1ccc(/C=N/N=C2\CC(c3ccccc3)NC(c3ccccc3)C2C)cc1 (mixture of isomers) ?
25

FYI, the data here is from ChEMBL document CHEMBL3046071.
